Listed here: items and their measured SGPT Increase - Index Value.
system: Hepatotoxicity; experiment: FDA HLAED, serum glutamic pyruvic transaminase (SGPT) increase; conditions: human
Provide a numeric answer; units are not to be included.

molecule: CCN[C@@H]1C[C@H](N)[C@@H](O[C@H]2OC(CN)=CC[C@H]2N)[C@H](O)[C@H]1O[C@H]1OC[C@](C)(O)[C@H](NC)[C@H]1O [NETILMICIN]
quantity.measured: SGPT Increase - Index Value
test.value: 0
--
molecule: CC[C@H]1OC(=O)[C@H](C)[C@@H](O[C@H]2C[C@@](C)(OC)[C@@H](O)[C@H](C)O2)[C@H](C)[C@@H](O[C@@H]2O[C@H](C)C[C@H](N(C)C)[C@H]2O)[C@](C)(OC)C[C@@H](C)C(=O)[C@H](C)[C@@H](O)[C@]1(C)O [CLARITHROMYCIN]
quantity.measured: SGPT Increase - Index Value
test.value: 3.3
--
molecule: NCCNCCNCCN [TRIENTINE]
quantity.measured: SGPT Increase - Index Value
test.value: 69.4

Data request, read-out SGPT Increase - Index Value, for Cc1nccn1CC1CCc2c(c3ccccc3n2C)C1=O (stereo unspecified) [ONDANSETRON]
1.3

Data request, read-out SGPT Increase - Index Value, for CCCCCCCN(CC)CCCC(O)c1ccc(NS(C)(=O)=O)cc1 (stereo unspecified) [IBUTILIDE]
0

Data request, read-out SGPT Increase - Index Value, for Cc1cccc(Nc2ccncc2S(=O)(=O)NC(=O)NC(C)C)c1 [TORSEMIDE]
0.5

Data request, read-out SGPT Increase - Index Value, for CC(C)C[C@H]1C(=O)N2CCC[C@H]2[C@]2(O)O[C@](NC(=O)[C@@H]3C=C4c5cccc6[nH]c(Br)c(c56)C[C@H]4N(C)C3)(C(C)C)C(=O)N12 [BROMOCRIPTINE]
0

Data request, read-out SGPT Increase - Index Value, for CC1(C)S[C@@H]2[C@H](NC(=O)C3(N)CCCCC3)C(=O)N2[C@H]1C(=O)O [CYCLACILLIN]
0

Data request, read-out SGPT Increase - Index Value, for Nc1nc(F)nc2c1ncn2[C@@H]1O[C@H](CO)[C@@H](O)[C@@H]1O [FLUDARABINE]
10.7

Data request, read-out SGPT Increase - Index Value, for C[C@]12CC[C@@H]3c4ccc(OC(=O)N(CCCl)CCCl)cc4CC[C@H]3[C@@H]1CC[C@@H]2O [ESTRAMUSTINE]
0

Data request, read-out SGPT Increase - Index Value, for CCC(=O)O[C@@H](O[P@](=O)(CCCCc1ccccc1)CC(=O)N1C[C@H](C2CCCCC2)C[C@H]1C(=O)O)C(C)C [FOSINOPRIL]
1.5
